Tested on: NCI-H23 lung
ASSAY_PROTOCOL: NCI-60 one-dose screen, 48 h (100 = growth as untreated, 0 = no growth, -100 = all killed)
TEST_CONDITIONS: 10 µM unless noted
Protocol: Growth inhibition of the NCI-H23 human Non-Small Cell Lung tumor cell line is measured as a screen for anti-cancer activity. Cells are grown in 96 well plates and exposed to the test compound for 48 hours. Compounds are tested at a single concentration, which is 10^-5 M for most compounds. The reported endpoint is percent growth (GI% or GIPRCNT), where numbers from 0 - 100% represent growth inhibition, and numbers from -100% - 0 represent cell death. […]
Compounds without any hit were thinned out: in the full panel of roughly 83,000, 20% have a hit.
I'd be grateful if you could share measured growth for these entries.
Return type: number; implicit unit %.

Form field growth for item CCN(CC)CCOc1ccc(Cl)c(C)c1 on NCI-H23 lung: 91.6

Form: item COc1cc(/C=C/C(=O)c2cccc(-n3cc(-c4cc(OC)c(OC)c(OC)c4)[nH]c3=O)c2)cc(OC)c1OC ; test system NCI-H23 lung; growth: 6.11

Measured on NCI-H23 lung, COc1ccc(-c2c(N)n[nH]c2-c2cc(OC)c3c(c2)OCCO3)cc1 has a documented growth of 87.6

Reading of growth for CCN(CC)c1ccc(N=O)cc1 with NCI-H23 lung: 81.7

Bench note, NCI-H23 lung: entry CN1CCN(CCCOc2ccc3nc(Nc4ccc(Cl)c(C(F)(F)F)c4)ccc3c2)CC1 , its growth = 67.3

// assay NCI-H23 lung, entry COc1ccc(S(=O)(=O)n2ccc(-c3ccc4c(c3)CCC(C)(C)O4)n2)cc1OC , growth value = 56.1

Tested on NCI-H23 lung, the item COc1cc2c(c(OC)c1OC)-c1ccc(N)c(=O)cc1[C@@H](NC(C)=O)CC2 showed growth equal to 4.57

Param item: O=C(c1ccccc1)C1OC1c1ccc([N+](=O)[O-])cc1 (stereo unspecified) ; param system: NCI-H23 lung; output growth: 48.1

With NCI-H23 lung as the test system, CCN1CCN(c2nc(NNC(=O)c3ccccc3)nc(N3CCN(C(c4ccccc4)c4ccccc4)CC3)n2)CC1 showed growth of 67.5

With NCI-H23 lung as the test system, CCOC(=O)c1cn2c3c(cc(C)cc3c1=O)C(=O)/C(=C/c1ccccc1)C2 showed growth of 108

Item: COc1cc(/C=C/C(=O)/C=C/c2cc(OC)c3c(c2)OCO3)cc2c1OCO2 | System: NCI-H23 lung | growth: 80.5

So the reported growth for C=C(C)[C@@H]1C[C@H](O)Cc2cc(F)ccc2N1 , on NCI-H23 lung, turned out to be 96.9

Value sought: growth, system NCI-H23 lung, item CCCCCCCCCCCCNC(=O)[C@H]1CSC(c2cc3ccccc3s2)N1 (stereo partly specified) . Result: -7.5

// growth (NCI-H23 lung) for CCCC(=O)Oc1ccc(/C(=C(\C)c2ccccc2)c2ccc(OCCN(CC)CC)cc2)cc1 = 87.6

The measured growth that Cc1ccc2nc(Cl)cc(=O)n2c1 showed for NCI-H23 lung is 107

Record COc1cc(/C(C#N)=C/c2ccc3c(c2OC)OCO3)cc2c1OCO2 / NCI-H23 lung, growth recorded as 30.9

Lab entry: NCI-H23 lung assay, compound COc1cc(NC(N)=NCCC(C)(C)c2ccc(C(F)(F)F)cc2)ncc1C#N , growth = 6.42

Value (growth, NCI-H23 lung) for record C=C1C(=O)O[C@@H]2[C@@H]3O[C@@](C)(CC/C=C(\C)CCC[C@@H]2C)[C@H](O)C[C@@H]13 = 81.6

Item: COc1ccc(/C=C(\C#N)c2cc(OC)c3c(c2)OCO3)cc1 | System: NCI-H23 lung | growth: 37.5

Known value: NCI-H23 lung growth of the compound CO[C@H]1NC(=O)N(S(=O)(=O)c2ccc(Cl)cc2)[C@@H]1OC equals 107

Measured growth for this entry O=C(Nc1cccc(-n2cc(-c3ccncc3)c(-c3ccc(Cl)c(O)c3)n2)c1)c1ccc(N2CCOCC2)c(C(F)(F)F)c1 on NCI-H23 lung: 61.3
